Item-by-item account of log10 IC50
target-or-test-system: Recombinant human cathepsin S (CatS) (Homo sapiens, UniProt P25774)
Sequence (P25774 115-331): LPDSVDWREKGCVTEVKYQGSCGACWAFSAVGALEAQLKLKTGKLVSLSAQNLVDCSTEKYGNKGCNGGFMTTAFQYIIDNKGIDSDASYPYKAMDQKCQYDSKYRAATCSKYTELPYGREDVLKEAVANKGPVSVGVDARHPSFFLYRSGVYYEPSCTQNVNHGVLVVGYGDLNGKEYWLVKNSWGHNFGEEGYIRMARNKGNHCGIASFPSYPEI
test-name: Recombinant human cathepsin S (CatS) inhibition assay, fluorogenic substrate Z-Valine-Valine-Arginine-AMC
measurement-setup: CatS IC50
measure-name: log10 IC50 (log10 of the value in µM)

- compound: "CS(=O)(=O)N1CCc2c(c(-c3ccc(Cl)c(C#Cc4ccc(CNCc5ccc(Cl)cc5)cc4)c3)nn2CCCN2CCC(N3CCCCC3=O)CC2)C1 [Example 338]"
  measure-name: "log10 IC50"
  value-reported: -1.70
- compound: "C[C@H]1COCCN1CCCn1nc(-c2ccc(Cl)c(C#Cc3ccc4c(c3)CN(C3CC3)CC4)c2)c2c1CCN(C(=O)C(N)=O)C2 [Example 283]"
  measure-name: "log10 IC50"
  value-reported: -1.00
- compound: "NC(=O)N1CCc2c(c(-c3ccc(Cl)c(C#Cc4ccc(C(=O)N5CCCC5)cc4)c3)nn2CCCN2CCSCC2)C1 [Example 164]"
  measure-name: "log10 IC50"
  value-reported: -0.14
- compound: "CS(=O)(=O)N1CCc2c(c(-c3ccc(Cl)c(C#Cc4ccc(CNCc5ccco5)cc4)c3)nn2CCCN2CCOCC2)C1 [Example 425]"
  measure-name: "log10 IC50"
  value-reported: -1.15
- compound: "C[C@H]1COCCN1CCCn1nc(-c2ccc(Cl)c(C#Cc3ccc(Cl)c(C(=O)N4CCCC4)c3)c2)c2c1CCN(C(=O)C(N)=O)C2 [Example 573]"
  measure-name: "log10 IC50"
  value-reported: -0.72
- compound: "Cc1ccsc1CNCc1ccc(C#Cc2cc(-c3nn(CCCN4CCOCC4)c4c3CN(S(C)(=O)=O)CC4)ccc2Cl)cc1 [Example 424]"
  measure-name: "log10 IC50"
  value-reported: -0.70

----------
target-or-test-system: Recombinant human cathepsin S (CatS) (Homo sapiens, UniProt P25774)
test-name: Recombinant human cathepsin S (CatS) inhibition assay, fluorogenic substrate Z-Valine-Valine-Arginine-AMC
pIC50: −log10 of the molar value.
T means recorded pIC50 is 6 or above; F means it is below 6.

- compound: "CS(=O)(=O)N1CCc2c(c(-c3ccc(Cl)c(C#Cc4ccc5c(c4)CN(C4CC4)CC5)c3)nn2CCCN2CCOCC2)C1"
  target-or-test-system: "Recombinant human cathepsin S (CatS) (Homo sapiens, UniProt P25774)"
  qualitative-label: "T"
- compound: "NC(=O)N1CCc2c(c(-c3ccc(Cl)c(C#Cc4ccc(CNCc5ccc(Cl)cc5)cc4)c3)nn2CCCN2CCN(c3ccccc3)CC2)C1"
  target-or-test-system: "Recombinant human cathepsin S (CatS) (Homo sapiens, UniProt P25774)"
  qualitative-label: "T"
- compound: "COC(=O)C1NCCc2cc(C#Cc3cc(-c4nn(CCCN5CCOCC5)c5c4CN(S(C)(=O)=O)CC5)ccc3Cl)ccc21 (centres unmarked)"
  target-or-test-system: "Recombinant human cathepsin S (CatS) (Homo sapiens, UniProt P25774)"
  qualitative-label: "F"
- compound: "CS(=O)(=O)N1CCc2c(c(-c3ccc(Cl)c(C#CC4CCCCC4)c3)nn2C[C@@H](O)CN2CCC(C3CCNCC3)CC2)C1"
  target-or-test-system: "Recombinant human cathepsin S (CatS) (Homo sapiens, UniProt P25774)"
  qualitative-label: "F"
- compound: "NC(=O)N1CCc2c(c(-c3ccc(Cl)c(C#Cc4ccc(CNCc5ccc(Cl)cc5)cc4)c3)nn2C[C@@H](O)CN2CCOCC2)C1"
  target-or-test-system: "Recombinant human cathepsin S (CatS) (Homo sapiens, UniProt P25774)"
  qualitative-label: "T"
- compound: "CN1CCN(CCCCc2cc(-c3nn(CCCN4CCC(N5CCCC5=O)CC4)c4c3CN(S(C)(=O)=O)CC4)ccc2Cl)CC1"
  target-or-test-system: "Recombinant human cathepsin S (CatS) (Homo sapiens, UniProt P25774)"
  qualitative-label: "F"
- compound: "NC(=O)N1CCc2c(c(-c3ccc(Cl)c(C#Cc4ccc(Cl)c(C(=O)NC[C@@H]5CCCN5)c4)c3)nn2CCCN2CCSCC2)C1"
  target-or-test-system: "Recombinant human cathepsin S (CatS) (Homo sapiens, UniProt P25774)"
  qualitative-label: "T"
- compound: "CC(C)N1CCc2ccc(C#Cc3cc(-c4nn(CCCN5CCOC[C@@H]5C)c5c4CN(S(C)(=O)=O)CC5)ccc3Cl)cc2C1"
  target-or-test-system: "Recombinant human cathepsin S (CatS) (Homo sapiens, UniProt P25774)"
  qualitative-label: "T"
- compound: "CS(=O)(=O)N1CCc2c(c(-c3ccc(Cl)c(C#Cc4ccc(Cl)cc4)c3)nn2CC(O)CN2CCC(N3CCCC3=O)CC2)C1 (centres unmarked)"
  target-or-test-system: "Recombinant human cathepsin S (CatS) (Homo sapiens, UniProt P25774)"
  qualitative-label: "T"
- compound: "C[C@H]1COCCN1C[C@H](O)Cn1nc(-c2ccc(Cl)c(C#Cc3ccc(CNCc4ccc(Cl)cc4)cc3)c2)c2c1CCN(S(C)(=O)=O)C2"
  target-or-test-system: "Recombinant human cathepsin S (CatS) (Homo sapiens, UniProt P25774)"
  qualitative-label: "T"
- compound: "NC(=O)N1CCc2c(c(-c3ccc(Cl)c(C#Cc4ccc(C(=O)NC[C@@H]5CCCN5)cc4)c3)nn2CCCN2CCSCC2)C1"
  target-or-test-system: "Recombinant human cathepsin S (CatS) (Homo sapiens, UniProt P25774)"
  qualitative-label: "T"
- compound: "CC(=O)NCCCc1cc(-c2nn(CCCN3CCOCC3)c3c2CN(S(C)(=O)=O)CC3)ccc1Cl"
  target-or-test-system: "Recombinant human cathepsin S (CatS) (Homo sapiens, UniProt P25774)"
  qualitative-label: "F"
- compound: "CS(=O)(=O)N1CCc2c(c(-c3ccc(Cl)c(CCCCO)c3)nn2CCCN2CCOCC2)C1"
  target-or-test-system: "Recombinant human cathepsin S (CatS) (Homo sapiens, UniProt P25774)"
  qualitative-label: "F"
- compound: "CC(=O)N1CCC(C2CCN(C[C@H](O)Cn3nc(-c4ccc(Cl)c(C#Cc5ccc(Cl)cc5)c4)c4c3CCN(S(C)(=O)=O)C4)CC2)CC1"
  target-or-test-system: "Recombinant human cathepsin S (CatS) (Homo sapiens, UniProt P25774)"
  qualitative-label: "T"
- compound: "CN1CCC(C2CCN(C[C@H](O)Cn3nc(-c4ccc(Cl)c(CCc5ccc(Cl)cc5)c4)c4c3CCN(S(C)(=O)=O)C4)CC2)CC1"
  target-or-test-system: "Recombinant human cathepsin S (CatS) (Homo sapiens, UniProt P25774)"
  qualitative-label: "T"
- compound: "NC(=O)N1CCc2c(c(-c3ccc(Cl)c(C#Cc4ccc(CNCc5ccc(Cl)cc5)cc4)c3)nn2CCCN2CCCCC2)C1"
  target-or-test-system: "Recombinant human cathepsin S (CatS) (Homo sapiens, UniProt P25774)"
  qualitative-label: "T"
- compound: "CS(=O)(=O)N1CCc2c(c(-c3ccc(Cl)c(C#Cc4ccc(CNCc5ccc(Cl)cc5)cc4)c3)nn2CCCN2C[C@@H]3C[C@H]2CO3)C1"
  target-or-test-system: "Recombinant human cathepsin S (CatS) (Homo sapiens, UniProt P25774)"
  qualitative-label: "T"
- compound: "CS(=O)(=O)N1CCc2c(c(-c3ccc(Cl)c(C#Cc4ccc(CNCc5ccc(Cl)cc5)cc4)c3)nn2CCCN2CCC(c3ccccc3)CC2)C1"
  target-or-test-system: "Recombinant human cathepsin S (CatS) (Homo sapiens, UniProt P25774)"
  qualitative-label: "T"
- compound: "CS(=O)(=O)N1CCc2c(c(-c3ccc(Cl)c(C#Cc4ccc(CNCc5ccc(Cl)cc5)cc4)c3)nn2CCCN2CCN(c3cccc(O)c3)CC2)C1"
  target-or-test-system: "Recombinant human cathepsin S (CatS) (Homo sapiens, UniProt P25774)"
  qualitative-label: "T"
- compound: "CS(=O)(=O)N1CCc2c(c(-c3ccc(Cl)c(C#Cc4ccc5c(c4)CNCC5)c3)nn2CCCN2CCC(C(N)=O)CC2)C1"
  target-or-test-system: "Recombinant human cathepsin S (CatS) (Homo sapiens, UniProt P25774)"
  qualitative-label: "T"

----------
target-or-test-system: Recombinant human cathepsin S (CatS) (Homo sapiens, UniProt P25774)
test-name: Recombinant human cathepsin S (CatS) inhibition assay, fluorogenic substrate Z-Valine-Valine-Arginine-AMC;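 note: Baculovirus-expressed CatS in pH 5.0 sodium acetate buffer with DTT and NaCl, fluorescence read each minute over 20 min, inhibition derived from rate slope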
measurement-setup: CatS IC50
pIC50: −log10 of the molar value.

- smiles-input: "CS(=O)(=O)N1CCc2c(c(-c3ccc(Cl)c(C#Cc4ccc5c(c4)CN[C@@H](CO)C5)c3)nn2CCCN2CCOCC2)C1"
  pIC50: 6.72
- smiles-input: "CS(=O)(=O)N1CCc2c(c(-c3ccc(Cl)c(C#CC4CCCCC4)c3)nn2CCCN2CCOCC2)C1"
  pIC50: 5.17
- smiles-input: "CC(C)CC#Cc1cc(-c2nn(C[C@@H](O)CN3CCC(C4CCNCC4)CC3)c3c2CN(S(C)(=O)=O)CC3)ccc1Cl"
  pIC50: 6.21
- smiles-input: "CS(=O)(=O)N1CCc2c(c(-c3ccc(Cl)c(C#Cc4cccc(CNc5ccccc5)c4)c3)nn2CCCN2CCOCC2)C1"
  pIC50: 5.79
- smiles-input: "CS(=O)(=O)N1CCc2c(c(-c3ccc(Cl)c(C#Cc4ccc(CNCc5ccc(Cl)cc5)cc4)c3)nn2CCCN2CCS(=O)(=O)CC2)C1"
  pIC50: 6.42
- smiles-input: "CS(=O)(=O)N1CCc2c(c(-c3ccc(Cl)c(C#Cc4ccc5c(c4)CCN(C4CC4)C5)c3)nn2CCCN2CCOCC2)C1"
  pIC50: 6.70
- smiles-input: "CS(=O)(=O)N1CCc2c(c(-c3ccc(Cl)c(C#Cc4ccc5c(c4)CN[C@@H](C(=O)N4CCCC4)C5)c3)nn2CCCN2CCOCC2)C1"
  pIC50: 6.19
- smiles-input: "CNCCCNC(=O)c1ccc(C#Cc2cc(-c3nn(CCCN4CCCCC4)c4c3CN(S(C)(=O)=O)CC4)ccc2Cl)cc1"
  pIC50: 7.22
- smiles-input: "CN(C)c1ccc(CNCc2ccc(C#Cc3cc(-c4nn(CCCN5CCSCC5)c5c4CN(C(N)=O)CC5)ccc3Cl)cc2)cc1"
  pIC50: 6.72
- smiles-input: "C[C@H]1COCCN1CCCn1nc(-c2ccc(Cl)c(C#Cc3ccc(C(=O)NC[C@@H]4CCCN4)cc3)c2)c2c1CCN(C(=O)C(N)=O)C2"
  pIC50: 7.52
- smiles-input: "CC(C)(C)OC(=O)N1CCC(C2CCN(C[C@H](O)Cn3nc(-c4ccc(Cl)c(C#CCc5ccccc5)c4)c4c3CCN(S(C)(=O)=O)C4)CC2)CC1"
  pIC50: 5.82
- smiles-input: "CS(=O)(=O)N1CCc2c(c(-c3ccc(Cl)c(C#Cc4ccc(CN5CCCCC5)cc4)c3)nn2CCCN2CCOCC2)C1"
  pIC50: 5.82
- smiles-input: "CS(=O)(=O)N1CCc2c(c(-c3ccc(Cl)c(C#Cc4ccc(CN5CCCC5)cc4)c3)nn2CCCN2CCOCC2)C1"
  pIC50: 5.85
- smiles-input: "CS(=O)(=O)N1CCc2c(c(-c3ccc(Cl)c(C#Cc4cccc(CN)c4)c3)nn2CCCN2CCOCC2)C1"
  pIC50: 6.33
- smiles-input: "C[C@H]1COCCN1CCCn1nc(-c2ccc(Cl)c(C#Cc3ccc(Cl)c(C(=O)NCC4CNC4)c3)c2)c2c1CCN(C(=O)C(N)=O)C2"
  pIC50: 7.52
- smiles-input: "CC(C)(C)OC(=O)N1CCCN(CCCn2nc(-c3ccc(Cl)c(C#Cc4ccc(CNCc5ccc(Cl)cc5)cc4)c3)c3c2CCN(S(C)(=O)=O)C3)CC1"
  pIC50: 6.82
- smiles-input: "NC(=O)N1CCc2c(c(-c3ccc(Cl)c(C#Cc4ccc(CN5CCC(N6C[C@H](O)CC6=O)CC5)cc4)c3)nn2CCCN2CCSCC2)C1"
  pIC50: 6.00
- smiles-input: "Cn1cncc1CNCc1ccc(C#Cc2cc(-c3nn(CCCN4CCOCC4)c4c3CN(S(C)(=O)=O)CC4)ccc2Cl)cc1"
  pIC50: 7.05
- smiles-input: "CS(=O)(=O)N1CCc2c(c(-c3ccc(Cl)c(C#Cc4ccc(CNCc5ccc(Cl)cc5)cc4)c3)nn2CCCN2CCC(C(F)(F)F)CC2)C1"
  pIC50: 6.96
- smiles-input: "CS(=O)(=O)N1CCc2c(c(-c3ccc(Cl)c(C#Cc4ccc(CNCc5ccc(Cl)cc5)cc4)c3)nn2CCCN2CCC(C(=O)O)CC2)C1"
  pIC50: 6.82
- smiles-input: "CN1CCc2cc(C#Cc3cc(-c4nn(CCCN5CCOCC5)c5c4CN(S(C)(=O)=O)CC5)ccc3Cl)ccc2C1"
  pIC50: 6.41
- smiles-input: "CS(=O)(=O)N1CCc2c(c(-c3ccc(Cl)c(CCc4ccc5c(c4)CNCC5)c3)nn2CCCN2CCN(C3CC3)CC2)C1"
  pIC50: 7.05
- smiles-input: "NC(=O)N1CCc2c(c(-c3ccc(Cl)c(C#Cc4ccc(CNCc5ccc(Cl)cc5)cc4)c3)nn2C[C@H](O)CN2CCSCC2)C1"
  pIC50: 6.96
- smiles-input: "CCCNCc1cc(C#Cc2cc(-c3nn(CCCN4CCOC[C@@H]4C)c4c3CN(C(=O)C(N)=O)CC4)ccc2Cl)ccc1Cl"
  pIC50: 7.70
- smiles-input: "NC(=O)N1CCc2c(c(-c3ccc(Cl)c(C#Cc4ccc(Cl)c(CN5CCOCC5)c4)c3)nn2CCCN2CCSCC2)C1"
  pIC50: 7.40
